system: U87; experiment: Bliss synergy score (Combenefit); higher = more synergy; extreme values may be limits of the assay; conditions: exposure time: 72 h
property_measured: Bliss synergy score

Example cases with answers are listed next.
CC(=O)O[C@@]12CO[C@@H]1C[C@H](O)[C@@]1(C)C(=O)[C@H](O)C3=C(C)[C@@H](OC(=O)[C@H](O)[C@@H](NC(=O)OC(C)(C)C)c4ccccc4)C[C@@](O)([C@@H](OC(=O)c4ccccc4)[C@H]21)C3(C)C [Docetaxel] + N#CC(c1ccnc(NCCc2cccnc2)n1)c1nc2ccccc2s1 [AS601245] ... 0.347
CO[C@H]1C[C@@H]2CC[C@@H](C)[C@@](O)(O2)C(=O)C(=O)N2CCCC[C@H]2C(=O)O[C@H]([C@H](C)C[C@@H]2CC[C@@H](O)[C@H](OC)C2)CC(=O)[C@H](C)/C=C(\C)[C@@H](O)[C@@H](OC)C(=O)[C@H](C)C[C@H](C)/C=C/C=C/C=C/1C [Rapamycin] + Cc1cc([C@@H](C)Nc2ccccc2C(=O)O)c2nc(N3CCOCC3)cc(=O)n2c1 [AZD6482] ... 0

We now examine a further compound.
Asked: Give Bliss synergy score for this entry on U87: C[C@@H](Oc1cc(-c2cnn(C3CCNCC3)c2)cnc1N)c1c(Cl)ccc(F)c1Cl [Crizotinib] + CCOc1nc(NC(=O)Cc2cc(OC)ccc2OC)cc(N)c1C#N [JNK inhibitor VIII]
Given back: 0

* * *

test system: AM38; test: Chou-Talalay combination index (dimensionless); higher = less synergy (more antagonism); conditions: exposure time: 72 h
property_measured: Chou-Talalay combination index
The answer should be a number; do not append a unit.

C[C@@H](Oc1cc(-c2cnn(C3CCNCC3)c2)cnc1N)c1c(Cl)ccc(F)c1Cl [Crizotinib] + CCOc1nc(NC(=O)Cc2cc(OC)ccc2OC)cc(N)c1C#N [JNK inhibitor VIII] ... 1.13
CCC(=O)N1CCN(c2ccc(-n3c(=O)ccc4cnc5ccc(-c6cnc7ccccc7c6)cc5c43)cc2C(F)(F)F)CC1 [Torin1] + N#CC(c1ccnc(NCCc2cccnc2)n1)c1nc2ccccc2s1 [AS601245] ... 1.32
CC(=O)O[C@@]12CO[C@@H]1C[C@H](O)[C@@]1(C)C(=O)[C@H](O)C3=C(C)[C@@H](OC(=O)[C@H](O)[C@@H](NC(=O)OC(C)(C)C)c4ccccc4)C[C@@](O)([C@@H](OC(=O)c4ccccc4)[C@H]21)C3(C)C [Docetaxel] + CCCCCCCCCCCC1=C(O)C(=O)C=C(O)C1=O [Embelin] ... 1.08
C=CCc1cccc(/C=N/NC(=O)CN2CCN(Cc3ccccc3)CC2)c1O [PAC-1] + CCOc1nc(NC(=O)Cc2cc(OC)ccc2OC)cc(N)c1C#N [JNK inhibitor VIII] ... 0.965
Nc1ccn([C@@H]2O[C@H](CO)[C@@H](O)C2(F)F)c(=O)n1 [Gemcitabine] + C=CCc1cccc(/C=N/NC(=O)CN2CCN(Cc3ccccc3)CC2)c1O [PAC-1] ... 1
C#Cc1cccc(Nc2ncnc3cc(OCCOC)c(OCCOC)cc23)c1 [Erlotinib] + CCCCCCCCCCCC1=C(O)C(=O)C=C(O)C1=O [Embelin] ... 1.08
C[C@@H](Oc1cc(-c2cnn(C3CCNCC3)c2)cnc1N)c1c(Cl)ccc(F)c1Cl [Crizotinib] + Cc1cc([C@@H](C)Nc2ccccc2C(=O)O)c2nc(N3CCOCC3)cc(=O)n2c1 [AZD6482] ... 0.52
CC(=O)O[C@@]12CO[C@@H]1C[C@H](O)[C@@]1(C)C(=O)[C@H](O)C3=C(C)[C@@H](OC(=O)[C@H](O)[C@@H](NC(=O)OC(C)(C)C)c4ccccc4)C[C@@](O)([C@@H](OC(=O)c4ccccc4)[C@H]21)C3(C)C [Docetaxel] + C#Cc1cccc(Nc2ncnc3cc(OCCOC)c(OCCOC)cc23)c1 [Erlotinib] ... 0.962

Asked: Return the recorded Chou-Talalay combination index value; entry: C#Cc1cccc(Nc2ncnc3cc(OCCOC)c(OCCOC)cc23)c1 [Erlotinib] + N#CC(c1ccnc(NCCc2cccnc2)n1)c1nc2ccccc2s1 [AS601245]
Given back: 1.25
